Assay: qHTS drug screen for cell cycle checkpoint inhibitors in PARPi-resistant BRCA-mutant ovarian cancer cell lines. (AID 1963452)
Details: PEO1/OlaR viability, CellTiter-Glo luminescence, 96 h; measured here: PEO4 Z-AUC; stronger effect = lower value
Response field label takes Yes when Z-AUC is strictly below 0.04 and No in all other cases.

# count of solved cases: 5
CC(C)N(C[C@H]1O[C@@H](n2cnc3c(N)ncnc32)[C@H](O)[C@@H]1O)C1CC(CCc2nc3ccc(C(C)(C)C)cc3[nH]2)C1 (some centres not stated)
No
Cc1cc(C)cc(NC(=O)Cc2ccc(OC(C)(C)C(=O)O)cc2)c1
Yes
CN(C)c1cccc(-c2c3c(=O)n(-c4ccccc4Cl)[nH]c3cc(=O)n2C)c1
Yes
CCc1nc(C(N)=O)c(Nc2ccc(N3CCC(N4CCN(C)CC4)CC3)c(OC)c2)nc1NC1CCOCC1
No
O=C(NCC(=O)N1CC[C@H](NC2CCC(O)(c3ccc(-c4ncccn4)cn3)CC2)C1)c1cccc(C(F)(F)F)c1 (some centres not stated)
Yes

q: Lab note: confirm whether the reported Z-AUC for this molecule is below 0.04, equality not counting. molecule: O=C(C1CC1)N1CC[C@@H](Cc2n[nH]c(=O)n2-c2ccc(-c3ccc4occc4c3)cc2)C1
a: No

q: Given the entry CN1C(=O)N[C@@H](Cc2c[nH]c3c(Cl)cccc23)C1=O , would its reported Z-AUC be below 0.04?
a: Yes

q: Please let me know if Cc1cc(Nc2ncc(Cl)c(Nc3ccccc3S(=O)(=O)C(C)C)n2)c(OC(C)C)cc1C1CCNCC1 shows Z-AUC below 0.04.
a: Yes

q: Please determine if OCc1ccccc1O[C@@H]1O[C@H](CO)[C@@H](O)[C@H](O)[C@H]1O is below 0.04 in terms of Z-AUC.
a: No

q: Report whether reported Z-AUC is lower than 0.04 (strictly) for O=C(O)c1cnn(-c2nc3cc(OC(F)(F)F)c(Cl)cc3[nH]2)c1
a: Yes

q: Input OC[C@H]1O[C@@H](Oc2cc(O)cc(/C=C/c3ccc(O)cc3)c2)[C@H](O)[C@@H](O)[C@@H]1O ; condition: Z-AUC strictly below 0.04. Does it hold?
a: No

q: Say whether its Z-AUC is strictly beneath 0.04. Entry: O=C(NC[C@H](O)CN1CCc2ccccc2C1)c1cc(NC2COC2)ncn1
a: No

q: Could you please tell me whether Z-AUC recorded for CCCCN(CCCC)C(=O)CN1C[C@H](c2ccc3c(c2)OCO3)[C@@H](C(=O)O)[C@@H]1c1ccc(OC)cc1 is less than 0.04?
a: No

* * *

System: Es-2
Experiment: Primary qHTS to identify gynecologic anti-cancer compounds using libraries of approved drugs and bioactive compounds (AID 1345084); note: % is set by controls: 0 for no effect and ±100 for the full control effect; nearly all actives have a fitted effect of over 55% in size
Settings: Gynecologic cancer cell panel viability, ATPlite luminescence, 48 h; series mostly up to 57.5 µM
Inconclusive results are not listed. Active and inactive are the calls of the source. The call rests on the fitted dose curve; in most records, active means well fitted cell-killing curve with a large enough effect; inconclusive means small, poorly fitted or top-dose-only effect, or effect the other way; inactive means flat fitted curve, though single readings scatter. Where a SMILES comes first, the peptide text is derived from it. The star is where a group is joined. AFC = O=c1cc(C(F)(F)F)c2ccc(N*)cc2o1
Measured Endpoint: activity change, negative = cytotoxicity

CC1OC(O[C@H]2[C@@H](O)C[C@@]3(C)C([C@H](O)C[C@]4(C)C3CC=C3C5CC(C)(C)CC[C@]5(C(=O)OC5OC(CO)C(O)C(O)C5OC5OCC(OC6OCC(OC7OCC(O)C(O)C7O)C(O)C6O)C(OC6OCC(O)(CO)C6O)C5O)CC[C@]34C)[C@]2(C)CO)C(O)C(O)C1O (some centres undefined)
-1.65% [at 6.55 µM] (inactive)
CC(=O)N[C@@H](CC(C)C)C(=O)N[C@@H](CCC(=O)O)C(=O)N[C@@H](CCC(=O)O)C(=O)N[C@@H](CC(=O)O)C(=O)Nc1ccc2c(C(F)(F)F)cc(=O)oc2c1 (Ac-LEED-{AFC})
inactive
CN1C(=O)c2ccccc2-n2c(nc3ccccc3c2=O)/C1=C/c1ccccc1
inactive
CC(C)(O)CNc1nc(Nc2ccnc(C(F)(F)F)c2)nc(-c2cccc(C(F)(F)F)n2)n1
inactive

* * *

Measured Potency, listed per entry.
Experiment: Primary qHTS for inhibitors of nuclear receptor binding SET domain protein 2 (NSD2) in an isogenic RCH-ACV NSD2 p.E1099K mutant (9B) (AID 1645876); note: potency is the fitted concentration of half-maximal effect; nearly all actives have a fitted effect of over 70% in size
Details: RCH-ACV (leukaemia line) NSD2 E1099K (9B) viability, CellTiter-Glo, 72 h; series mostly up to 44.9 µM
Results filed as inconclusive are left out. The source made the active and inactive calls. Calls follow the shape of the dose curve; as a rule, active = well fitted inhibition curve with a large enough effect; inconclusive = small, poorly fitted or top-dose-only effect; inactive = flat fitted curve, though single readings scatter.

Look over these answered cases.
COc1cc2c(cc1O)CCN[C@]21CS[C@@H]2c3c(OC(C)=O)c(C)c4c(c3[C@H](COC1=O)N1[C@@H]2[C@H]2c3c(cc(C)c(OC)c3O)C[C@@H]([C@@H]1O)N2C)OCO4
0.0017 µM (active)
CC(=O)O[C@H]1[C@H](Oc2ccccc2COC(=O)C2(O)C=CCCC2=O)O[C@H](CO)[C@@H](O)[C@@H]1O (some centres undefined)
8.93 µM (active)
CC(C)(O)CNc1nc(Nc2ccnc(C(F)(F)F)c2)nc(-c2cccc(C(F)(F)F)n2)n1
20.9 µM (active)

Note: attention shifts to another entry.
q: Look up Potency for this molecule: CCCCC(=O)OCC(=O)[C@]1(O)Cc2c(O)c3c(c(O)c2[C@@H](O[C@H]2C[C@H](NC(=O)C(F)(F)F)[C@H](O)[C@H](C)O2)C1)C(=O)c1c(OC)cccc1C3=O
a: 0.263 µM (active)

* * *

Assay: Primary fluorescence-based thiol-reactive (MSTI) qHTS assay for identification of artifact compounds. (AID 1845221); note: nearly all actives have a fitted effect of over 65% in size
Conditions: MSTI thiol-reactivity probe, 1 h; series mostly up to 53.8 µM
Inconclusive results are not listed. Activity calls are given as the source filed them. Calls come from the whole dose curve; as a rule, active = well fitted inhibition curve with a large enough effect; inconclusive = small, poorly fitted or top-dose-only effect; inactive = no such curve, though single readings can be large or run the other way.
Hello, when you answer, please use one of the following outcomes: active, inactive

COc1cc(/C=C/C(=O)O[C@H]2[C@H](O)[C@@H](CO)O[C@@]2(CO)O[C@H]2O[C@H](COC(=O)c3ccc(O)cc3)[C@@H](O)[C@H](O)[C@H]2O)cc(OC)c1OC
inactive
C[C@@H]1C(=O)O[C@H]2CC34[C@H]5C[C@@H](C(C)(C)C)C36[C@@H](OC(=O)[C@@H]6O)O[C@@]4(C(=O)O5)[C@]21O (stereo partly drawn)
inactive
COC1CCCC/C(C)=C/C2C=C(C)C(C)C3C(CC(C)C)NC(=O)C23C(=O)C1 (stereo not drawn)
inactive

q: I'd appreciate the recorded outcome for C[C@@H]1O[C@@H](OC[C@H]2O[C@@H](OCCc3ccccc3)[C@H](O)[C@@H](O)[C@@H]2O)[C@H](O)[C@H](O)[C@H]1O from this test.
a: active

q: Test call for this compound, please: CC/C=C/CC1=C(CCCCCCCC(=O)O)CCC1=O
a: inactive

q: I'd appreciate the recorded outcome for COC12CC3C(C(C)C1=CC(=O)O2)C(O)C(OC(C)=O)C1C(C)(C)C(OC(C)=O)CCC31C (stereo not drawn) from this test.
a: inactive

q: Dear colleague, could you share the recorded outcome for CC1=CC2(O)/C=C/C(C)(O)CC(O)/C=C/C(=O)OC23C(=O)NC(CC(C)C)C3C1C (stereo not drawn) when you have a moment?
a: inactive

q: Could you kindly confirm the outcome this assay logged for COc1cc(C(=O)OC[C@H]2O[C@H](O[C@@]3(CO)O[C@@H](CO)[C@H](O)[C@H]3O)[C@H](O)[C@@H](O)[C@@H]2O)ccc1O ?
a: inactive

* * *

Experiment: Cell Viability - LYMP2-003 (AID 965);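 note: cells exposed to compounds for 24 h before reading; nearly all actives have a fitted effect of over 50% in size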
Settings: LYMP2-003 lymphoblastoid cell viability; series mostly up to 92.2 µM
Records with an inconclusive call do not appear. Activity calls are given as the source filed them. Calls follow the shape of the dose curve; as a rule, active = well fitted cell-killing curve with a large enough effect; inconclusive = small, poorly fitted or top-dose-only effect, or effect the other way; inactive = flat fitted curve, though single readings scatter.
One label from this list, please: True for active, False for inactive

q: Each molecule tested received a call. Report the one for CCCCCCCC(=O)O .
a: False

q: Returns: the outcome recorded for CCOc1ccc2c(c1)C(C)=CC(C)(C)N2 in this assay.
a: False

q: Would you mind telling me which call this test gave O=S(=O)(O)O ?
a: False

q: Returns: the outcome recorded for Nc1ccn([C@H]2CS[C@@H](CO)O2)c(=O)n1 in this assay.
a: False

q: Hi team, can someone confirm the assay call for O=CCCCC=O ?
a: True

q: What did the test return for CC1=C(/C=C/C(C)=C/C=C/C(C)=C/CO)C(C)(C)CCC1 ?
a: True

q: How did this test come out for CC(O)CO (configuration not stated) ?
a: False

q: Just curious, what result did Cc1ccccc1 get here?
a: False

q: Hi team, can someone confirm the assay call for IC(I)I ?
a: False

q: Recorded test call requested for O=C(O)CCC(=O)C(=O)O
a: False

q: What did the test return for CCCCC/C=C\C/C=C\CCCCCCCC(=O)O ?
a: False

q: In this assay, the call recorded for CC1=C2[C@@H]([C@H](C)CC[C@H]2/C=C(\C)C(=O)O)[C@H](O)C1 was what?
a: False
